# System: LNCaP cells
# Protocol Details: Specific cell uptake and internalization in LNCaP cells
# Type: cell-based, human
# Applied Conditions: (Internalized activity/total activity)*100
This listing pairs compounds with measured Internalized fraction.

Compound	Internalized fraction
O=C(O)CC[C@H](NC(=O)N[C@@H](CCCCNC(=O)[C@@H](Cc1ccc2ccccc2c1)NC(=O)CC[C@@H](NC(=O)[C@@H](CCC(=O)O)NC(=O)c1ccnc([18F])c1)C(=O)O)C(=O)O)C(=O)O	28%
O=C(O)CCC(NC(=O)NC(CCCCNC(=O)C(Cc1ccc2ccccc2c1)NC(=O)C1CCC(CNC(=O)C(CCC(=O)O)NC(=O)C(CCC(=O)O)NC(=O)c2ccc([18F])nc2)CC1)C(=O)O)C(=O)O (centres unmarked)	26%
O=C(O)CCC(NC(=O)NC(CCCCNC(=O)C(Cc1ccc2ccccc2c1)NC(=O)c1ccc(CNC(=O)C(CCC(=O)O)NC(=O)C(CCC(=O)O)NC(=O)C(CCC(=O)O)NC(=O)c2ccc([18F])nc2)cc1)C(=O)O)C(=O)O (centres unmarked)	45%
O=C(O)CCC(NC(=O)NC(CCCCNC(=O)C(Cc1ccc2ccccc2c1)NC(=O)c1ccc(CNC(=O)C(CNC(=O)C(CNC(=O)c2ccc([18F])nc2)S(=O)(=O)O)S(=O)(=O)O)cc1)C(=O)O)C(=O)O (centres unmarked)	60%

// next entry
Lookup: Internalized fraction / LNCaP cells / O=C(O)CCC(NC(=O)NC(CCCCNC(=O)C(Cc1ccc2ccccc2c1)NC(=O)CCC(NC(=O)CCC(NC(=O)c1ccc([18F])nc1)C(=O)O)C(=O)O)C(=O)O)C(=O)O (centres unmarked)
22%

Origin of measurements: patent US10815200B2
